- Test system: UCD52 (cells of a triple-negative basal-like breast cancer xenograft);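 further: PDX cells carrying CMV promoter-driven luciferase, viability read as total photon flux per second by IVIS imaging following D-luciferin, vehicle control 0.1% DMSO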
- assay comment: cell viability (% of vehicle); higher = less cytotoxic
- conditions: 10 µM; 72 h
Label true (1) when cell viability is strictly below 100; at or above that, label false (0).

# strict comparison: is reported cell viability < 100? input = Cc1ncc([N+](=O)[O-])n1CC(O)CCl (stereo not given)
true (1)

# strict comparison: is reported cell viability < 100? input = CCOC(=O)c1ccc(OC(=O)CCCCCN=C(N)N)cc1.CS(=O)(=O)O [Gabexate mesylate]
false (0)

# strict comparison: is reported cell viability < 100? input = Cc1nnc(C(=O)NC(C)(C)c2nc(C(=O)NCc3ccc(F)cc3)c(O)c(=O)n2C)o1
false (0)

# strict comparison: is reported cell viability < 100? input = CCCNC1CCc2nc(N)sc2C1 (stereo not given) [Pramipexole]
false (0)
